A compilation of IC50 values for UniProt:P10635 from the published literature.

Inquiry: What value of IC50 has been reported for the following compound? C[C@@H](c1ccccc1-c1ccc(F)cc1)n1cncc1C(=O)N1CCN2C[C@H](O)C[C@H]2C1
Reply text: > 10 µM

Inquiry: What value of IC50 has been reported for the following compound? CNC(=O)c1cc(COC2=NN=C(Nc3ccc(Cl)cc3)C3C=CSC23)ccn1 (stereo not drawn)
Reply text: > 20 µM

Inquiry: What value of IC50 has been reported for the following compound? CCc1ccc(Nc2ccc(C(=O)c3c[nH]c4ncnc(NC5CCOCC5)c34)c(F)n2)cn1
Reply text: > 10 µM

Inquiry: What value of IC50 has been reported for the following compound? CCn1cc(Nc2ccc(Cc3c[nH]c4ncnc(OC)c34)c(F)n2)cn1
Reply text: > 10 µM

Inquiry: What value of IC50 has been reported for the following compound? C[C@@H](c1ccccc1-c1ccc(F)c(F)c1F)n1cncc1C(=O)N1CCC2NCCO[C@@H]2C1 (stereo partly drawn)
Reply text: 9.45 µM

Inquiry: What value of IC50 has been reported for the following compound? CN1CCN(Cc2ccc(-c3ccc(C[C@@H](C#N)NC(=O)C4(N)CCOCC4)cc3)cc2)CC1
Reply text: > 100 µM

Inquiry: What value of IC50 has been reported for the following compound? COC(C)C(=O)Nc1cccc(NC(C(N)=O)c2ccccc2)c1 (stereo not drawn)
Reply text: > 50 µM

Inquiry: What value of IC50 has been reported for the following compound? Cc1cc(NC(=O)c2cc(F)cnc2NCc2ccnc3[nH]ccc23)ccc1C(C)C
Reply text: > 20 µM

Inquiry: What value of IC50 has been reported for the following compound? O=C(c1ccc(NC2CCC(F)(F)CC2)nc1)c1c[nH]c2ncnc(NC3CC3)c12
Reply text: > 10 µM

Inquiry: What value of IC50 has been reported for the following compound? C[C@H](c1ccc(C#N)cc1)n1cncc1CN1CCN(S(=O)(=O)c2cnc(Nc3ccc(C(F)(F)F)cn3)s2)CC1
Reply text: 5.25 µM

Inquiry: What value of IC50 has been reported for the following compound? Cc1cc(C#N)cnc1C(=O)Nc1cccc([C@@]2(C)N=C(N)S[C@H](C)[C@@H]2F)c1
Reply text: ≥ 20 µM

Inquiry: What value of IC50 has been reported for the following compound? Cc1cnc2[nH]cc(C(=O)c3ccc(Nc4ccc(C5CC5)nc4)nc3F)c2c1
Reply text: > 10 µM
